Catalogue of pKd readings, one per entry.
# target: T1, human IL-33 (R&D Systems, #3625-IL-010/CF) (human, UniProt O95760 112-270)
# T1 construct: also called hIL-33; huIL-33
# T1 sequence (looked up): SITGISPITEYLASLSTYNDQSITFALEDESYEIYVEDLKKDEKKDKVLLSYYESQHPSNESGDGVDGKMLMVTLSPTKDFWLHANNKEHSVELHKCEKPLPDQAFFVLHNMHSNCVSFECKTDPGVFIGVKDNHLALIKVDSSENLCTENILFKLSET
# procedure_text: SPR Biacore T200, 25 C
# Description: The binding kinetics of the anti-IL-33 antibody 10C12.38.H6.87Y.58I IgG4 and each anti-IL-33 antibody listed in Table 5 (RG1-RG20) to IL-33 were measured using surface plasmon resonance (SPR) on a BIACORE® T200 instrument (GE Healthcare). […] Antibody binding was measured to human IL-33 (R&D systems, #3625-IL-010/CF) and cyno IL-33 N-His (SEQ ID NO: 317) (Genentech, Inc.). […] After injection, disassociation of the ligand from the antibody was monitored for 10 min in running buffer. […]
Expect pKd as a plain number equal to -log10 of the molar concentration.

Reference set, count: 2
H4H9629P (antibody, IgG4, V domains shown, also called RG4) VH: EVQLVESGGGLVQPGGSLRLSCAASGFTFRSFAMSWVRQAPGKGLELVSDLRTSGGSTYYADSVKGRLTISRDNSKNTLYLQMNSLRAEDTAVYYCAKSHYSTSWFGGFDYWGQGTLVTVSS VL: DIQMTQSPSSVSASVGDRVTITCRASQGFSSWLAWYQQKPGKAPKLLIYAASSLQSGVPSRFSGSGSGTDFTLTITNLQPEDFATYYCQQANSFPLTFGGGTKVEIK: 9.25
H1M9559N (antibody, IgG1, V domains shown, also called RG1) VH: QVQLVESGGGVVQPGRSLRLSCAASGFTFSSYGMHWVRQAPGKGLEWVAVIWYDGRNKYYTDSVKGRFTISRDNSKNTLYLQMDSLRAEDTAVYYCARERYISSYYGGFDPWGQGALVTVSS VL: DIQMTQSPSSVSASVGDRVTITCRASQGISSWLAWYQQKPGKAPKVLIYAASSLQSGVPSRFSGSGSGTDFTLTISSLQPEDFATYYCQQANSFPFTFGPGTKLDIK: 9.09

Now consider a different binder.
Specify measured pKd for H4H9640P (antibody, IgG4, V domains shown, also called RG6) VH: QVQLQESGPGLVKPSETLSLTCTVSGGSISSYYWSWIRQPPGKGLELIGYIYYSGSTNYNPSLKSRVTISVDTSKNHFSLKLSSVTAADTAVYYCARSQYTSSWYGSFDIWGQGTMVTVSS VL: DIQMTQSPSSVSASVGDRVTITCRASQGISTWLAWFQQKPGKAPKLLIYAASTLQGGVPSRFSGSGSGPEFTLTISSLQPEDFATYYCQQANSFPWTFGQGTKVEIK .
9.26

Where do these numbers come from? They come from patent US20190092852A1.
